Target sequence: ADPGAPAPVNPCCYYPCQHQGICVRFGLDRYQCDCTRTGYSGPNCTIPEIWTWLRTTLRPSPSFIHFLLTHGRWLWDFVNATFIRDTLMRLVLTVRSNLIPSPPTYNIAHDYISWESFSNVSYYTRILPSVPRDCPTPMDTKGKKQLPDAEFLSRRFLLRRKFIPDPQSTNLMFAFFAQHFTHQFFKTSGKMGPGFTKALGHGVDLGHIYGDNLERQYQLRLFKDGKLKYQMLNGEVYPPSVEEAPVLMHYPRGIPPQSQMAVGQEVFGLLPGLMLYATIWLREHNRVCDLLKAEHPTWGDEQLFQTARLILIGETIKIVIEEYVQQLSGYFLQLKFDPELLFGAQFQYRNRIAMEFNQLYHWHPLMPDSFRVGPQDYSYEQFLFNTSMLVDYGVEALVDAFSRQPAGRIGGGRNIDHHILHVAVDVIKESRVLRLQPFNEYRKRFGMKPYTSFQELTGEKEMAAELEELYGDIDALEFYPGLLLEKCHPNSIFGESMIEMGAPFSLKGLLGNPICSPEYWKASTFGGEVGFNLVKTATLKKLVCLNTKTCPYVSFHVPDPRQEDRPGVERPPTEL
measure: IC50 (µM)

[[record]]
compound = "C/C(=N\\NC(=O)Cn1c(-c2ccc(S(C)(=O)=O)cc2)nc2ccccc21)c1ccccc1 [12a]"
result = 8.97

[[record]]
compound = "CS(=O)(=O)c1ccc(-c2nc3ccccc3n2CC(=O)N/N=C/c2ccccc2)cc1 [11a]"
result = 9.87

[[record]]
compound = "C/C(=N\\NC(=O)Cn1c(-c2ccc(S(C)(=O)=O)cc2)nc2cc(C)ccc21)c1ccc(Cl)cc1 [12f]"
result = 10.9

[[record]]
compound = "COc1ccc(/C=N/NC(=O)Cn2c(-c3ccc(S(C)(=O)=O)cc3)nc3cc(C)ccc32)cc1 [11k]"
result = 12.3

[[record]]
compound = "CS(=O)(=O)c1ccc(-c2nc3cc(Cl)ccc3n2CC(=O)N/N=C/c2ccc(F)cc2)cc1 [11h]"
result = 7.98

[[record]]
compound = "CS(=O)(=O)c1ccc(-c2nc3ccccc3n2CC(=O)N/N=C/c2ccc(Cl)cc2)cc1 [11b]"
result = 13.4

[[record]]
compound = "COc1ccc(/C=N/NC(=O)Cn2c(-c3ccc(S(C)(=O)=O)cc3)nc3ccccc32)cc1 [11c]"
result = 11.3

[[record]]
compound = "COc1ccc(/C=N/NC(=O)Cn2c(-c3ccc(S(C)(=O)=O)cc3)nc3cc(Cl)ccc32)cc1 [11g]"
result = 8.74

